kon values, listed per item
target: T1, recombinant human PDGF-CC active core domain protein with terminal histidine tag (human, UniProt Q9NRA1 231-345); experiment: SPR, BIAcore 2000, His-tagged PDGF-CC on Ni-NTA chip, antibody as analyte, 1:1 Langmuir fit (apparent)
T1 construct: Made in baculovirus-infected Sf9 cells; The position of the tag in the chain is not known; also called RhPC; RhPCc; not shown: terminal histidine tag
T1 sequence (Q9NRA1 231-345 limits assumed): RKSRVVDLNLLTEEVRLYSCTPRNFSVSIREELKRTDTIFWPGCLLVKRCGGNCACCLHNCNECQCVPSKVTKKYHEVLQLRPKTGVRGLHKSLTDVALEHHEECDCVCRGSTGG
METRIC: kon (M⁻¹ s⁻¹)

[
  {
    "BINDER": "monoclonal antibody 11F5 (antibody, mouse IgG2a, V domains shown, Murine IgG2a, kappa light chain) VH: QVQLQQSGAELARPGASVKLSCKASGYIFISYGISWVKQRTGQGLEWIGEIYPRSGKTYYNEKFKDKAALTADKSSSIAYMELRSLTSEDSAVYFCAREGYGYDGGYFDYWGQGTILTVSS VL: DIVMTQSPSSLAMSVGQKVAVSCKSSQSLLNSSNQKNYLAWYQQKPGQSPKLLVYFASTRDSGVPDRFTGSGSGTDFTLTISSVQAEDLAVYYCQQHYSTPLTFGAGTKLELKR",
    "METRIC": "kon",
    "MEASUREMENT_UNIT": "M⁻¹ s⁻¹",
    "REPORTED_MEASUREMENT": 640000
  },
  {
    "BINDER": "monoclonal antibody 12F5 (antibody, mouse IgG2a, V domains shown, Murine IgG2a, kappa light chain; also called anti-PDGF-CC mAb 12F5) VH: EVKLEESGGGLVQPGGSRELSCEGSGFTFSGFWMSWVRQTPGKTLEWIGDINSDGSAIIYAPSIKDRFTIFRDNDKSTLYLQMNNVRSEDTATYFCMRWGYYGSNYFDYWGQGTTLTVSS VL: DVVMTQTPLSLPVSLGDQASISCRSSQSIVHSNGNTYLHWYLQKPGQSPKLLIYRVSNRFSGVPDRFSGSGSGTDFTLKISRVEAEDMGVYYCFQGTHVPFTFGSGTKLEIKR",
    "METRIC": "kon",
    "MEASUREMENT_UNIT": "M⁻¹ s⁻¹",
    "REPORTED_MEASUREMENT": 90000
  },
  {
    "BINDER": "monoclonal antibody 6B3 (antibody, mouse IgG2a, V domains shown, The variable domains are identical to those of 19C7; also called mu6B3; murine 6B3) VH: QVQLQQSGVEVARPGASVKLSCKASGYTFRSYGITWVRQRTGQGLEWIGEIYPRSGKTYYNEKFKGKATLTADTSSSTVYMELRSLTSEDSAVYFCAREGYGYDGGYFDYWGQGTTLTVSS VL: DIVMTQSPSSLAMSVGQKVTMSCKSSQSLLNSRNQKNYLAWYQQKPGQSPKLLVYFASTRESGVPDRFTGSGSGTDFTLTISSVQAEDLAVYYCQQHYSTPLTFGAGTKLELKR",
    "METRIC": "kon",
    "MEASUREMENT_UNIT": "M⁻¹ s⁻¹",
    "REPORTED_MEASUREMENT": "1.8e+06"
  }
]

Values compiled from patent US20220275075A1.
